TESTED_SYSTEM: CYP2D6 (Homo sapiens)
Sequence (P10635 whole entry): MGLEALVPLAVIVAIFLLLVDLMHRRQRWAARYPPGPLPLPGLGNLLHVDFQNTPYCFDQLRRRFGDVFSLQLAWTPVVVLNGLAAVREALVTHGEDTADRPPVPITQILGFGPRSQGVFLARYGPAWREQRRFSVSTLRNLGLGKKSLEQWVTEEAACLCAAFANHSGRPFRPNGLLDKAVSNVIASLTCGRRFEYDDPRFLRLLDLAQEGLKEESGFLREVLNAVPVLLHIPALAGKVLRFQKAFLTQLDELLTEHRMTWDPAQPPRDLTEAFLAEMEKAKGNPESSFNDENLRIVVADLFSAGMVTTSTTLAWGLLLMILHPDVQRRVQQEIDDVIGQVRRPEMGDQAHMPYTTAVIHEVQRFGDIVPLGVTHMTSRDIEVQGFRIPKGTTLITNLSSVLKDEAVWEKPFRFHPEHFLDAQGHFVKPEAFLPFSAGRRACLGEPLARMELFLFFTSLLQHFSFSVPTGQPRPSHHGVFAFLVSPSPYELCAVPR

{"MOLECULE": "Cc1cc(Nc2nc([C@@H](O)c3ccc(F)cc3)nc3ccccc23)n[nH]1 [(S)(+)]", "TESTED_SYSTEM": "CYP2D6 (Homo sapiens)", "IC50": "> 40 µM"}
{"MOLECULE": "Cc1cc(Nc2nc([C@H](O)c3ccc(F)cc3)nc3ccccc23)n[nH]1 [(R)(−)]", "TESTED_SYSTEM": "CYP2D6 (Homo sapiens)", "IC50": "> 40 µM"}
{"MOLECULE": "Cc1cc(Nc2nc(C(O)c3ccc(F)cc3)nc3ccccc23)n[nH]1 (racemic) [Racemate]", "TESTED_SYSTEM": "CYP2D6 (Homo sapiens)", "IC50": "> 40 µM"}

* * *

# reported IC50; entries follow
TESTED_SYSTEM: CYP1A2 (Homo sapiens, UniProt P05177)
Sequence (P05177 1-516): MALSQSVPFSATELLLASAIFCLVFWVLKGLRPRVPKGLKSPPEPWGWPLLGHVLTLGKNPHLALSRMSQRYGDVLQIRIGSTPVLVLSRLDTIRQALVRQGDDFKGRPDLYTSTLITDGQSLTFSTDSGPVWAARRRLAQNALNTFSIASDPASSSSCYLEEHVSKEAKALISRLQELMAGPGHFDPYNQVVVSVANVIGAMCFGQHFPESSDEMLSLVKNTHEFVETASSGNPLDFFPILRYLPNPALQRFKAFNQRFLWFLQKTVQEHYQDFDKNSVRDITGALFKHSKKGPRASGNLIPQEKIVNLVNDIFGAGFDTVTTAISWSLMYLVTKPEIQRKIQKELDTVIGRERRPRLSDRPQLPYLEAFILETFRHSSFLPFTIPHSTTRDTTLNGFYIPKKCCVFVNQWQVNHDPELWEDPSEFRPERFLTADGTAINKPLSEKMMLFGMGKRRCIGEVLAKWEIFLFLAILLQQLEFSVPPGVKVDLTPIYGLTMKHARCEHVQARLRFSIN

{"COMPOUND": "Cc1cc(Nc2nc(C(O)c3ccc(F)cc3)nc3ccccc23)n[nH]1 (racemic) [Racemate]", "IC50": "< 0.31 µM"}
{"COMPOUND": "Cc1cc(Nc2nc([C@@H](O)c3ccc(F)cc3)nc3ccccc23)n[nH]1 [(S)(+)]", "IC50": "< 0.31 µM"}
{"COMPOUND": "Cc1cc(Nc2nc([C@H](O)c3ccc(F)cc3)nc3ccccc23)n[nH]1 [(R)(−)]", "IC50": "1.7 µM"}

* * *

MEASUREMENT_PROTOCOL: Pharmacokinetic studies in monkeys
MEASUREMENT_SETUP: male, cynomolgus monkey, in vivo, 10 mg/kg
ATTRIBUTE_MEASURED: bioavailability

{"COMPOUND": "Cc1cc(Nc2nc(C(O)c3ccc(F)cc3)nc3ccccc23)n[nH]1 (racemic) [Racemate]", "VALUE": "> 100%"}

* * *

TESTED_SYSTEM: phosphodiesterase PDE5 (Homo sapiens)
pIC50: −log10 of the molar value.

{"COMPOUND": "Cc1cc(Nc2nc(C(O)c3ccc(F)cc3)nc3ccccc23)n[nH]1 (racemic) [Racemate]", "TESTED_SYSTEM": "phosphodiesterase PDE5 (Homo sapiens)", "pIC50": 5.03}

These data points were gathered from patent US8952020B2.
